# Test system: cAMP production in RINm5F cells
# MEASUREMENT NOTES: cAMP production in RINm5F cells (Example 5)
# Type: cell-based
# STATED CONDITIONS: 30 minutes at 37° C., 0.1 mM IBMX, mean ± SEM
READOUT: pEC50
Just so you know, pEC50 here is -log10 of the concentration in molar units; reply with that number alone.

Worked set:
SUBSTANCE	SYSTEM TESTED	READOUT VALUE
trans-3-hexenoyl-NH-His-Ala-Glu-Gly-Thr-Phe-Thr-Ser-Asp-Val-Ser-Ser-Tyr-[(S)-Octylglycine]-Glu-Gly-Gln-Ala-Ala-Lys-Ala-Phe-Ile-Glu-Trp-Leu-Val-Lys-Asn-NH2 [TH0396]	cAMP production in RINm5F cells	8.64
trans-3-hexenoyl-NH-His-Ala-Glu-Gly-Thr-Phe-Thr-Ser-Asp-Val-Ser-Ser-Tyr-[(S)-Octylglycine]-Glu-Gly-Gln-Ala-Ala-Lys-Ala-Phe-Ile-Glu-Trp-Leu-Lys-Asn-NH2 [TH0395]	cAMP production in RINm5F cells	8.21
trans-3-hexenoyl-NH-His-Ala-Glu-Gly-Thr-Phe-Thr-Ser-Asp-Val-Ser-Ser-Tyr-[(S)-Octylglycine]-Glu-Gly-Gln-Ala-Ala-Lys-Glu-Phe-Ile-Ala-Trp-Leu-Val-Lys-Aib-Arg-NH2 [TH0426]	cAMP production in RINm5F cells	9.40
trans-3-hexenoyl-NH-His-Ala-Glu-Gly-Thr-Phe-Thr-Ser-Asp-Val-Ser-Ser-Tyr-[(S)-Octylglycine]-Glu-Gly-Gln-Ala-Ala-Lys-Glu-Phe-Ile-Ala-Trp-Leu-Val-Lys-Gly-Arg-NH2 [TH0424]	cAMP production in RINm5F cells	8.20
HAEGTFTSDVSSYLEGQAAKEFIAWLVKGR [GLP-1, reference compound]	cAMP production in RINm5F cells	8.74
2-Hydroxybenzoyl-NH-His-Ala-Glu-Gly-Thr-Phe-Thr-Ser-Asp-Val-Ser-Ser-Tyr-Leu-Glu-Gly-Gln-Ala-Ala-Lys-Glu-Phe-Ile-Ala-Trp-Leu-Val-Lys-Gly-Arg-NH2 [TH0318]	cAMP production in RINm5F cells	7.87

Please examine the following record next.
Entry His-Ala-Glu-Gly-Thr-Phe-Thr-Ser-Asp-Val-Ser-Ser-Tyr-[(S)-Octylglycine]-Glu-Gly-Gln-Ala-Ala-Lys-Glu-Phe-Ile-Ala-Trp-Leu-Val-Lys-Gly-Arg-NH2 [TH0322] , pEC50 reported as 9.70
